Literature-derived IC50 for Protein deacetylase HDAC6 (Homo sapiens, UniProt Q9UBN7) follows.
# Target: Protein deacetylase HDAC6 (Homo sapiens, UniProt Q9UBN7)
# Sequence (Q9UBN7 whole entry): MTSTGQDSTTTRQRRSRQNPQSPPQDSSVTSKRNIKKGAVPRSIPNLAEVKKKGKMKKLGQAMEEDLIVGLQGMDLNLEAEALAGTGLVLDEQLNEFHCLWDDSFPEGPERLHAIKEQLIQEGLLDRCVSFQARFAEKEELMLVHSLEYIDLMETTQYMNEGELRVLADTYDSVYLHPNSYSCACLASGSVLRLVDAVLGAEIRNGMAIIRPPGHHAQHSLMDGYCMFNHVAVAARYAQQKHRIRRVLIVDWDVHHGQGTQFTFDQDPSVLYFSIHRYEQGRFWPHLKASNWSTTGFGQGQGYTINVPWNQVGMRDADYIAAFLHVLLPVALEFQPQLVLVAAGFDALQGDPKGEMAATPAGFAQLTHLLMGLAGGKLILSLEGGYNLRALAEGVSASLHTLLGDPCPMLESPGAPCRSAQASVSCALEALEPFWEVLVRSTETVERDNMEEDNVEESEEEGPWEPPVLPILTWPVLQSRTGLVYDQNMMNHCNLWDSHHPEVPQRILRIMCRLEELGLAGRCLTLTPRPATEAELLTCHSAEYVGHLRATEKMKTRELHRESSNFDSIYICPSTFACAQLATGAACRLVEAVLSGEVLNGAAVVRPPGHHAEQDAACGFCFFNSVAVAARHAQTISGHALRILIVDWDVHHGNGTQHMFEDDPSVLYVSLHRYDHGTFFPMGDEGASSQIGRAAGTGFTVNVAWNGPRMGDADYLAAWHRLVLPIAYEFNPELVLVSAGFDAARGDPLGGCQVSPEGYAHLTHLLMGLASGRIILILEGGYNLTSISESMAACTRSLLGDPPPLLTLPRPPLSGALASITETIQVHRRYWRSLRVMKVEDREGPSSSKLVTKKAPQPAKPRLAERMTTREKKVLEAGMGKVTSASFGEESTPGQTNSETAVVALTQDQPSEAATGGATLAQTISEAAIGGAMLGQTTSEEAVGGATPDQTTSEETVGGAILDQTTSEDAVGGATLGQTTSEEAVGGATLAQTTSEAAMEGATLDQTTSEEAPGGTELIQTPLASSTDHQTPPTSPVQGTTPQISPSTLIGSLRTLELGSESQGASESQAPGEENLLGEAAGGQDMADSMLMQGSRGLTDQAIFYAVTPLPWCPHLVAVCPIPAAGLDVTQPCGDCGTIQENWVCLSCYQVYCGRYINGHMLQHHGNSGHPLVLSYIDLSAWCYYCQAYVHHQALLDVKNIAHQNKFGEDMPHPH
Recorded endpoint: IC50 (nM)

INSERT INTO assay_data (molecule, target, observed_measurement) VALUES
  ('O=C(NO)c1ccc(Cc2nnc[nH]2)cc1', 'Protein deacetylase HDAC6 (Homo sapiens, UniProt Q9UBN7)', 198),
  ('CCCCS(=O)(=O)NCCCC[C@@H](C)[C@H]1CC[C@H]2/C(=C/C=C3C[C@@H](O)C[C@H](O)C3)CCC[C@]12C', 'Protein deacetylase HDAC6 (Homo sapiens, UniProt Q9UBN7)', 101000),
  ('O=C(NO)c1noc(-c2ccccc2)n1', 'Protein deacetylase HDAC6 (Homo sapiens, UniProt Q9UBN7)', 112),
  ('Nc1nc2ncc(CNc3ccc(C(=O)NCCCCCC(=O)NO)cc3)nc2c(=O)[nH]1', 'Protein deacetylase HDAC6 (Homo sapiens, UniProt Q9UBN7)', 43.6),
  ('O=C(NO)c1ccc(CCN2c3ccccc3Sc3ccccc32)cc1', 'Protein deacetylase HDAC6 (Homo sapiens, UniProt Q9UBN7)', 136);

(A) COc1cc(OC)cc(N(CCNC(C)C)c2ccc3ncc(-c4cnn(CCOc5ccc(C(=O)NO)cc5)c4)nc3c2)c1
(B) Cc1cccc(NCc2nc3cc(C(=O)NO)ccc3n2C)c1
(C) Cc1noc(C)c1-c1nc2sc3c(c2c(=O)[nH]1)CCN(CC(=O)Nc1ccccc1N)C3
(D) O=C(CCCCCCCn1cc(-c2ncnc3[nH]ccc23)cn1)NO
Query string: Give the ascending ranking of the items by reported IC50. Please reply with the labels ordered as requested. Many thanks.
Result string: D, A, B, C

(1) Nc1ccc(-c2cc(C(=O)NCCCCCCC(=O)NO)no2)cc1
(2) COc1cc(OC)cc(N(CCCCCCC(=O)NO)c2ccc3ncc(-c4cnn(C)c4)nc3c2)c1
Query string: I'm curious, which of these has a smaller IC50 number: 1 or 2 ? Let me know the label of the one you choose.
Result string: 1
(1: 5.86 nM, 2: 13 nM)

(P) O=C(CCCCCCOc1cccc(-c2nc3ccccc3[nH]2)c1)NO
(Q) O=CN(O)CCCCCCCC(=O)Nc1ccc2ccccc2c1
Query string: Select the item with the higher value of IC50 from the options P and Q listed. Give the label of your selection.
Result string: Q
(Q: 910 nM, P: 47 nM)
